# Tested on: central nervous system
# Assay Comment: Inhibition of secondary conditioned avoidance response in mice (anxiety-relieving effect)
# Format: in vivo
# Setup Conditions: Mus musculus, ip; i.p. in mice; read-out: ED50, Secondary conditioned avoidance response
Quantity: ED50 (mg/kg)

- Molecule: "CC(=O)N1OCCc2ccccc2C1C (stereo not shown) [Example 18]"
  Numeric Value: 60
- Molecule: "CN1Cc2ccccc2CCO1 [Example 16]"
  Numeric Value: 40
- Molecule: "CC1NOCCc2ccccc21 (stereo not shown) [Example 4]"
  Numeric Value: 60
- Molecule: "CC1c2ccccc2CCON1C(N)=O (stereo not shown) [Example 6]"
  Numeric Value: 15

###

# Test system: central nervous system
# Assay Comment: Impairment of motor coordination and righting reflex in mice (hypnotic properties)
# Type: in vivo
# Setup Conditions: Mus musculus, ip; i.p. in mice; read-out: ED50, Impairment of motor coordination and righting reflex

- Compound: "CN1Cc2ccccc2CCO1"
  ED50 (mg/kg): 120
- Compound: "CC1c2ccccc2CCON1C(N)=O (stereo not shown)"
  ED50 (mg/kg): 60
- Compound: "CC(=O)N1OCCc2ccccc2C1C (stereo not shown)"
  ED50 (mg/kg): 60
- Compound: "CC1NOCCc2ccccc21 (stereo not shown)"
  ED50 (mg/kg): 60
